Provenance of the data: patent US20160009793A1

target: T1, Aβ1-42 protofibrils (UniProt P05067 672-713); assay: inhibition ELISA: antibody pre-incubated in solution with Aβ protofibrils, then transferred to Aβ coated plates
T1 construct: domain: Aβ1-42; Aβ numbering is not APP numbering; also called Aβ protofibrils; Aβ-protofibrils
T1 sequence (P05067 672-713 limits assumed): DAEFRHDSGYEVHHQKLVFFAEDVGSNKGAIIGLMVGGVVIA

binder	binding result
A17D/R79T/R82S (antibody, human IgG1, kappa, V domains shown) VH: EVQLVESGGGLVQPGGSLRLSCSASGFTFSSFGMHWVRQAPGKGLEWVAYISSGSSTIYYGDTVKGRFTISRDNAKNSLFLQMSSLRAEDTAVYYCAREGGYYYGRSYYTMDYWGQGTTVTVSS VL: DVVMTQSPLSLPVTPGDPASISCRSSQSIVHSNGNTYLEWYLQKPGQSPKLLIYKVSNRFSGVPDRFSGSGSGTDFTLTISSVEAEDVGIYYCFQGSHVPPTFGPGTKLEIKR	binds
A17D (antibody, human IgG1, kappa, V domains shown) VH: EVQLVESGGGLVQPGGSLRLSCSASGFTFSSFGMHWVRQAPGKGLEWVAYISSGSSTIYYGDTVKGRFTISRDNAKNSLFLQMSSLRAEDTAVYYCAREGGYYYGRSYYTMDYWGQGTTVTVSS VL: DVVMTQSPLSLPVTPGDPASISCRSSQSIVHSNGNTYLEWYLQKPGQSPKLLIYKVSNRFSGVPDRFSGSGSGTDFTLRISRVEAEDVGIYYCFQGSHVPPTFGPGTKLEIKR	binds
A17D/R82S (antibody, human IgG1, kappa, V domains shown) VH: EVQLVESGGGLVQPGGSLRLSCSASGFTFSSFGMHWVRQAPGKGLEWVAYISSGSSTIYYGDTVKGRFTISRDNAKNSLFLQMSSLRAEDTAVYYCAREGGYYYGRSYYTMDYWGQGTTVTVSS VL: DVVMTQSPLSLPVTPGDPASISCRSSQSIVHSNGNTYLEWYLQKPGQSPKLLIYKVSNRFSGVPDRFSGSGSGTDFTLRISSVEAEDVGIYYCFQGSHVPPTFGPGTKLEIKR	binds
